Source listed as ChEMBL document CHEMBL4513216.

# procedure_text: Toxicity liver stage against HepG2, at 10uM
# Type: cell-based
# Parameters: test concentration 10 uM, cell line HepG2-A16-CD81EGFP
# run_conditions: human, HepG2-A16-CD81EGFP cells; read-out: INHIBITION
Can you tell me cytotoxicity at 10 µM for the items I'm about to list?
Enter your answer as a number in %; do not include the unit.

[in] Give the reported value of cytotoxicity at 10 µM for this record: CC(C)C1CN(C(=O)c2cc(F)cc3[nH]cnc23)CCS1 (stereo unspecified)
[out] 1.97

[in] Give the reported value of cytotoxicity at 10 µM for this record: CCc1ccc(NC(=O)C2OC(c3cccs3)=NN2C(C)=O)cc1 (stereo unspecified)
[out] 4.64

[in] Give the reported value of cytotoxicity at 10 µM for this record: Cc1csc(CN2CC[C@H]3C[C@H](c4nnc(C)[nH]4)O[C@@H]3C2)n1
[out] -19.6

[in] Give the reported value of cytotoxicity at 10 µM for this record: CO[C@H]1C(=O)N(C)C2(CCNCC2)[C@@H]1C(=O)Nc1ccccc1
[out] 6.17

[in] Give the reported value of cytotoxicity at 10 µM for this record: NC(=O)c1cccc(CCNCc2cnc(C3CCC3)s2)c1
[out] 21.9

[in] Give the reported value of cytotoxicity at 10 µM for this record: Cc1ccnc(NC(=O)C2(n3cnnn3)CCCCC2)c1
[out] -0.0864

----------
Can you tell me cytotoxicity at 10 µM for the items I'm about to list?
# procedure_text: Toxicity liver stage against HepG2, at 10uM
# Type: cell-based
# Design: test concentration 10 uM, cell line HepG2-A16-CD81EGFP
# run_conditions: human, HepG2-A16-CD81EGFP cells; read-out: INHIBITION
Enter your answer as a number in %; do not include the unit.

[in] Give the reported value of cytotoxicity at 10 µM for this record: CS(=O)(=O)N1CCO[C@H]2[C@@H](Oc3ncccc3F)CC[C@@H]21
[out] -2.54

[in] Give the reported value of cytotoxicity at 10 µM for this record: COCCC(=O)N(CCC#N)c1ccc(C)c(C)c1
[out] 3.43

[in] Give the reported value of cytotoxicity at 10 µM for this record: Cc1cccc(NC(=O)c2cnc(C3CCCNC3)cn2)n1 (stereo unspecified)
[out] 3.04

[in] Give the reported value of cytotoxicity at 10 µM for this record: c1csc(N2CCCN(c3ncnc4sccc34)CC2)n1
[out] 45.3

[in] Give the reported value of cytotoxicity at 10 µM for this record: CN(Cc1ccc(Cl)s1)C1CCCN(c2cccnn2)C1 (stereo unspecified)
[out] -4.27

[in] Give the reported value of cytotoxicity at 10 µM for this record: O=C(CN1CCc2ccccc2C1)NCc1ccco1
[out] 6.32

[in] Give the reported value of cytotoxicity at 10 µM for this record: Cc1cnn(CC2CCCCN2C(=O)Cc2c(C)noc2C)c1 (stereo unspecified)
[out] -0.807

[in] Give the reported value of cytotoxicity at 10 µM for this record: CCC(C(=O)Nc1ccc(-c2nc(C)n[nH]2)cc1)N1CCCC1=O (stereo unspecified)
[out] -44.8

[in] Give the reported value of cytotoxicity at 10 µM for this record: CC(=O)N1CCC(c2nccnc2CNC(=O)c2cc[nH]n2)CC1
[out] -6.27

[in] Give the reported value of cytotoxicity at 10 µM for this record: Cc1noc(C)c1CN1C[C@@H]2CCCO[C@@H]2[C@H](Nc2ccccn2)C1
[out] 5.44

[in] Give the reported value of cytotoxicity at 10 µM for this record: CC(C)c1nccn1-c1cccc(C2CCN(C)CC2)n1
[out] 0.307
